system: NCI-H322M; test: relative viability (nuclei count vs DMSO), 5 days (fraction); higher = more cells survive; settings: first compound 0.8 µM
# if measured relative viability < 0.7: Satisfied  # else: Not satisfied

# compound, cat
data = [
    ("CCCCCCCCCCCC1=C(O)C(=O)C=C(O)C1=O [Embelin] + Nc1nc2[nH]cc(CCc3ccc(C(=O)N[C@@H](CCC(=O)O)C(=O)O)cc3)c2c(=O)[nH]1 [Pemetrexed] (partner 0.2 µM)", "Satisfied"),
    ("CCCCCCCCCCCC1=C(O)C(=O)C=C(O)C1=O [Embelin] + Cc1nc(NC(=O)N2CCC[C@H]2C(N)=O)sc1-c1ccnc(C(C)(C)C(F)(F)F)c1 [Alpelisib] (partner 2 µM)", "Not satisfied"),
    ("CCCCCCCCCCCC1=C(O)C(=O)C=C(O)C1=O [Embelin] + COc1cccc2cc(-c3nc([C@H]4CC[C@H](C(=O)O)CC4)n4ncnc(N)c34)[nH]c12 [OSI-027] (partner 0.5 µM)", "Not satisfied"),
    ("CCCCCCCCCCCC1=C(O)C(=O)C=C(O)C1=O [Embelin] + CC(=O)c1c(C)c2cnc(Nc3ccc(N4CCNCC4)cn3)nc2n(C2CCCC2)c1=O [Palbociclib] (partner 0.5 µM)", "Satisfied"),
    ("CCCCCCCCCCCC1=C(O)C(=O)C=C(O)C1=O [Embelin] + Cc1nc(Nc2ncc(C(=O)Nc3c(C)cccc3Cl)s2)cc(N2CCN(CCO)CC2)n1 [Dasatinib] (partner 0.075 µM)", "Satisfied"),
]

meta.source: the supplement of paper PMC10307832
